Tested on: ATP;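 note: ATP exposure 15 min at 22 °C before imaging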
Test: switch fluorescence ratio, 500 uM ATP over buffer (Cy3 cluster intensity, sum of 5 cycles each) (fold (ratio)); higher = stronger signal-on switching upon ATP binding; sequences stand for … in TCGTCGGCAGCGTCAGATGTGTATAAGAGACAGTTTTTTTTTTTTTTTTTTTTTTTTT…TC
Conditions: aptamer strand: ATP DNA aptamer (quencher-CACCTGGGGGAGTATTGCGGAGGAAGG + anchor), 100 nM annealed; ATP concentration: 500 uM
test-readout: switch fluorescence ratio

residue-sequence: GGGTGAAATG
test-readout: switch fluorescence ratio
measured: 0.994

residue-sequence: GAAACATACG
test-readout: switch fluorescence ratio
measured: 1.33

residue-sequence: TTGGAGTTGT
test-readout: switch fluorescence ratio
measured: 1.02

residue-sequence: TGATCAGGGG
test-readout: switch fluorescence ratio
measured: 1.03

residue-sequence: ATATATATGG
test-readout: switch fluorescence ratio
measured: 1.03

residue-sequence: ATTCGGGATA
test-readout: switch fluorescence ratio
measured: 1

residue-sequence: ATGTTTCAGT
test-readout: switch fluorescence ratio
measured: 0.998

residue-sequence: CCACACCATT
test-readout: switch fluorescence ratio
measured: 1.06

residue-sequence: TTCTACTGAT
test-readout: switch fluorescence ratio
measured: 1.32

residue-sequence: GATGAGTATA
test-readout: switch fluorescence ratio
measured: 1

residue-sequence: GACTTATTGG
test-readout: switch fluorescence ratio
measured: 1.02

residue-sequence: TTAACTGCTT
test-readout: switch fluorescence ratio
measured: 0.989

residue-sequence: GACGGATGAC
test-readout: switch fluorescence ratio
measured: 1.33

residue-sequence: GGTATAAGGG
test-readout: switch fluorescence ratio
measured: 0.997

residue-sequence: ATCGGAATAA
test-readout: switch fluorescence ratio
measured: 1.4

residue-sequence: ATTGATTAGT
test-readout: switch fluorescence ratio
measured: 1.12

residue-sequence: ACTTGGTTGG
test-readout: switch fluorescence ratio
measured: 0.987

residue-sequence: AATCGGTAAT
test-readout: switch fluorescence ratio
measured: 1.03

residue-sequence: GGCCCTAGTA
test-readout: switch fluorescence ratio
measured: 1

residue-sequence: ATGAAGCTAG
test-readout: switch fluorescence ratio
measured: 1.06

residue-sequence: CGGGTCTTGG
test-readout: switch fluorescence ratio
measured: 1.03

residue-sequence: GGCATTAAAG
test-readout: switch fluorescence ratio
measured: 0.984

residue-sequence: TTACTCGGGA
test-readout: switch fluorescence ratio
measured: 1.04

residue-sequence: CTGGTGGTTT
test-readout: switch fluorescence ratio
measured: 1.01

residue-sequence: GGGAATGATC
test-readout: switch fluorescence ratio
measured: 1.01

FYI, the data here is from the supplement of paper PMC10126150.
